Tested on: SNB-19 CNS
Method: NCI-60 one-dose screen, 48 h (100 = growth as untreated, 0 = no growth, -100 = all killed)
Cond: 10 µM
About 83,000 compounds went through this panel and 20% of them were active in at least one assay; those are over-represented in the sample as a whole.
# note: boundary value 90% maps to not fulfilled; growth below it maps to fulfilled

OCC1OC(n2cnc3c(NCc4ccco4)ncnc32)C(O)C1O (stereo not given)	fulfilled
COc1ccc(C(=O)c2ccccc2CN2C(=O)c3ccccc3C2=O)cc1	not fulfilled
COc1cc2cc(Oc3ccc(NC(=O)c4cccc(C(F)(F)F)c4)cc3)c(C)nc2cc1OC	fulfilled
N#CCc1csc(Cc2ccccc2)n1	not fulfilled
COc1cc(C(=O)/C(C)=C/c2c[nH]c3ccccc23)cc(OC)c1OC	fulfilled

*Q* Dear colleague, could you confirm whether growth of O=C(Nc1cc([N+](=O)[O-])c2[nH]c(=O)c3ccccc3c2c1)C(F)(F)F falls below 90%? Thanks.
*A* fulfilled

*Q* Dear colleague, could you confirm whether growth of O=C(Nc1nc(-c2ccccc2)nc2c1sc(=S)n2-c1ccccc1)C(F)(F)F falls below 90%? Thanks.
*A* not fulfilled

*Q* Dear colleague, could you confirm whether growth of COc1cc2cc(Oc3ccc(NC(=O)Nc4ccc(Cl)c(C(F)(F)F)c4)cc3)c(C)nc2cc1OC falls below 90%? Thanks.
*A* fulfilled

*Q* Dear colleague, could you confirm whether growth of Cc1cc(NC(=O)c2ccc(C)c(Nc3nccc(-c4cccnc4)n3)c2)cc(-n2cnc(C)c2)c1 falls below 90%? Thanks.
*A* fulfilled

* * *

System: NCI-H522 lung
Method: NCI-60 one-dose screen, 48 h (100 = growth as untreated, 0 = no growth, -100 = all killed)
Cond: 10 µM
About 83,000 compounds went through this panel and 20% of them were active in at least one assay; those are over-represented in the sample as a whole.
Measure: growth (%)
Report as a plain number; the unit % is understood.

Use these answered entries as a reference point.
Oc1cccc(-c2nc3sccn3c2-c2ccncn2)c1	98.9
C#CCOc1c(OC)cc(C(=O)/C(C)=C/c2cccc(N=[N+]=[N-])c2)cc1OC	-48.6

growth reading for COc1ccc(N(C)c2ncnc3occ(C)c23)cc1 : -37.7

* * *

Entries and their growth values follow.
Test system: MALME-3M melanoma
Method: NCI-60 one-dose screen, 48 h (100 = growth as untreated, 0 = no growth, -100 = all killed)
Cond: 10 µM
About 83,000 compounds went through this panel and 20% of them were active in at least one assay; those are over-represented in the sample as a whole.
Report as a plain number; the unit % is understood.

CCc1cc(Cl)c(OC)c(C(=O)NCC2CCCN2CC)c1O (centres undefined)	108
CC[C@@H]1NC(=O)[C@H]([C@H](O)[C@H](C)C/C=C/c2ccc(CN3C(=O)CCCC3=O)cc2)N(C)C(=O)[C@H](C(C)C)N(C)C(=O)[C@H](CC(C)C)N(C)C(=O)[C@H](CC(C)C)N(C)C(=O)[C@@H](C)NC(=O)[C@H](C)NC(=O)[C@H](CC(C)C)N(C)C(=O)[C@H](C(C)C)NC(=O)[C@H](CC(C)C)N(C)C(=O)CN(C)C1=O	83
O=C(Nc1cccc2c1CCCC2)c1cc2ccccc2cc1O	26.8

growth reading for Cc1ccc(S(=O)(=O)N(C)CCCCCC(=O)O)cc1 : 98.5

Value source: PubChem BioAssay (NCI)
